Below, each of the binders is paired with its reported MFI value.
Target: T1, human SEMA4D, full length, on CHO-K1 cells (CHO-K1 hSEMA4D) (human, UniProt Q92854 22-862)
T1 construct: whole, on cells; also called human SEMA4D recombinant cells
T1 sequence (looked up): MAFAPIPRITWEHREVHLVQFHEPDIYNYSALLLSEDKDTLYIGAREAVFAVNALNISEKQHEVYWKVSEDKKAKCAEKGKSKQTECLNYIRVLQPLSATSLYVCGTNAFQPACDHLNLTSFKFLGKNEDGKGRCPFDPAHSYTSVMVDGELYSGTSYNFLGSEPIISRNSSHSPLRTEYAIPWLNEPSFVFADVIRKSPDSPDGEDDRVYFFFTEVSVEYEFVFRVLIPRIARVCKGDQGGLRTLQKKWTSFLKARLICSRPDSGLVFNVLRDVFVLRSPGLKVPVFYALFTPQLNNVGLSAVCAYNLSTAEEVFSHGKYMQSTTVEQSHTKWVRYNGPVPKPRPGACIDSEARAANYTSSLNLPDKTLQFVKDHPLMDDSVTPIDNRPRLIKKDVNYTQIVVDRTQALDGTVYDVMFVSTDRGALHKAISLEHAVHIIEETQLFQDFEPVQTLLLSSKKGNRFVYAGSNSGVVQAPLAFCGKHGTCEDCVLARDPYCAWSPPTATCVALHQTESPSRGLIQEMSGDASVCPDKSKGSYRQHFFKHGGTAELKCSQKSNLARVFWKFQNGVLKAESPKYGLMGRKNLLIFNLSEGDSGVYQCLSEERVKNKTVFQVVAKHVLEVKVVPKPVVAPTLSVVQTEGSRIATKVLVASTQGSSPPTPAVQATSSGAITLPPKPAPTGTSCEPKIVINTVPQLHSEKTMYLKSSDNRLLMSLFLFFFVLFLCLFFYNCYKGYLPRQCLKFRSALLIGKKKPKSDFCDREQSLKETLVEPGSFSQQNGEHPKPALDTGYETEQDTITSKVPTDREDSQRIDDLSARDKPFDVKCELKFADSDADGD
Experiment: FACS, CHO-K1 hSEMA4D cells; Ab 0.0213 nM
# answer = number (no unit)

Example binders with recorded MFI:
31G10C5 (antibody, V domains shown, Mouse monoclonal antibody purified from hybridoma supernatant on protein A) VH: EVQLQQSGAELVRPGASVKLSCTASGFNIKDDYIHWVKQRPEQGLEWIGWIDPANGHIEYASNFQAKATITADTSSNTAYLQLSSLTSEDTAVYYCTTGDYDGFTYWGQGTLVTVST VL: QIVLTQSPAIMSASPGEKVTISCSARSSVSYMYWYQQKPGSSPKPWIYRTSNLASGVPARFSGSGSGTSYSLTISSMEAEDAATYYCQHYHTYPYTFGGGTKLEIK; 225
38H2E3 (antibody, V domains shown, Mouse monoclonal antibody purified from hybridoma supernatant on protein A) VH: EFQLQQSGPEVVKPGASVKISCKASGYSFTDYNMNWMKQSKGKSLEWIGVISPDYGTTTYNQNFKDKATLTVDQSSSTAYMQLNSLTSEDSAVYYCAKDMYYVYAYYTMDYWGHGTSVTVSS VL: DVVMTQTPLSLPVSLGDQASISCRSSQSLVHSNGHTYLHWYLQRPGQSPTLLIYKVSNRFSGVPDRVSGSGSGTDFTLKISRVEAEDLGVYFCSQGTHVPRTFGGGTKLEIK; 78.7

Data request: Recorded MFI for 42B7G2 (antibody, V domains shown, Mouse monoclonal antibody purified from hybridoma supernatant on protein A) VH: QVQLQQSGAELARPGASVKLSCKASGYTFTDYGISWVKQRTGQGLEWIGEIYLRNDNSYYNEKFKGKATLTADKSSNTAYMELRSLTSEDSAVYFCARWGDHGNNYEDAMDYWGQGTSVTVSS VL: DIVLTQSPASLAMSLGKRATISCRASESVSIIGSNLIHWYQQKPGQPPKLLIYHASNLETGVPARFSGSGSRTDFTLTIDPVEEDDVAIYYCLQSRKVPYTFGGGTKLEIK , please?
Data returned: 173
